Recorded values, source PubChem BioAssay (NCI).

# Test system: CAKI-1 renal
# PROCEDURE_DETAILS: NCI-60 one-dose screen, 48 h (100 = growth as untreated, 0 = no growth, -100 = all killed)
# CONDITION_PARAMETERS: 10 µM unless noted
# Description: Growth inhibition of the CAKI-1 human tumor cell line is measured as a screen for anti-cancer activity. Cells are grown in 96 well plates and exposed to the test compound for 48 hours. Compounds are tested at a single concentration, which is 10^-5 M for most compounds. The reported endpoint is percent growth (GI% or GIPRCNT), where numbers from 0 - 100% represent growth inhibition, and numbers from -100% - 0 represent cell death. For example, a value of 40 represents 60% growth inhibition. […]
This is part of a sample that, as a whole, favours compounds with a hit. Of some 83,000 tested, about 20% had one in any assay.
Classes based on growth: group A (below 40%), group B (40% to below 90%), group C (90% or more)

Query: Where would `Nc1cccc(Nc2cc(S(=O)(=O)O)c(N)c3c2C(=O)c2ccccc2C3=O)c1` land among the classes by reported growth?
Reply: group C

Query: Where would `C=C1C(=O)O[C@H]2[C@H]1CC/C(COC(=O)/C=C\C(=O)O)=C\CC[C@@]1(C)O[C@@H]21` land among the classes by reported growth?
Reply: group C

Query: Where would COc1ccc(CN2CCCC(C(=O)c3ccc(C(F)(F)F)cc3)C2)c(O)c1 (stereo unspecified) land among the classes by reported growth?
Reply: group A

Query: Where would `O=C(CCc1nnc2sc(-c3ccc(Cl)cc3Cl)nn12)c1nc2ncccc2[nH]1` land among the classes by reported growth?
Reply: group A

Query: Where would `Nc1ccc(-c2nn3c(CCC(=O)c4nc5ncccc5[nH]4)nnc3s2)c(O)c1` land among the classes by reported growth?
Reply: group B

Query: Where would COCCN(C(=O)Cc1cccs1)C(C(=O)NCc1ccc(OC)cc1)c1ccc(C(C)C)cc1 (stereo unspecified) land among the classes by reported growth?
Reply: group B

----------
# System: IGROV1 ovarian
# PROCEDURE_DETAILS: NCI-60 one-dose screen, 48 h (100 = growth as untreated, 0 = no growth, -100 = all killed)
# CONDITION_PARAMETERS: 10 µM unless noted
The panel holds about 83,000 compounds, 20% with a hit somewhere; the sample as a whole holds those more often.
# growth listing for each entry below
Field: numeric (%). Do not append units.

* O=c1c2cc(F)cc(Cl)c2sc2c(Cl)nc3ccccc3c12 | 74.8
* O=C(Cn1cc(COc2ncnc3c2cnn3-c2ccccc2)nn1)Nc1cccc2ccccc12 | 102
* CN1C(=O)N(C)C2C1NN=c1s/c(=C\c3ccc([N+](=O)[O-])cc3)c(=O)n12 (stereo unspecified) | 57.4
* Fc1cccc(COc2ccc(Nc3ncnc4onc(-c5ccccc5)c34)cc2)c1 | 24.5
* COc1ccc2sc(N(Cc3cccnc3)C(=O)c3ccc(C#N)cc3)nc2c1 | 98.1

GET /value?item= CC(C)(C)c1ccc(C2CC(=O)C3=C(C2)Nc2ccccc2N(C(=O)c2ccccc2Cl)C3c2ccc(F)cc2)cc1 (stereo unspecified) &field=growth returns -26.7

GET /value?item= `CCOC(=O)CSc1c(-c2ccccc2)c2cc(Cl)ccc2[nH]c1=O` &field=growth returns 99.1

GET /value?item= `COc1cc(/C=C2\CN(S(=O)(=O)c3ccccc3)C/C(=C\c3cc(CN4CCCC4)c(O)c(OC)c3)C2=O)cc(CN2CCCC2)c1O` &field=growth returns -27.6

GET /value?item= `O=Cc1c(OCc2cnnn2CC(=O)Nc2ccc(Br)cc2)ccc2ccccc12` &field=growth returns 85.9

GET /value?item= `COc1ccc(-c2nnc(COc3ccc(C(=O)/C=C/c4ccco4)cc3)o2)cc1` &field=growth returns 87.6

----------
# Test system: RXF 393 renal
# PROCEDURE_DETAILS: NCI-60 one-dose screen, 48 h (100 = growth as untreated, 0 = no growth, -100 = all killed)
# CONDITION_PARAMETERS: 10 µM unless noted
Compounds without any hit were thinned out: in the full panel of roughly 83,000, 20% have a hit.
# growth listing for each entry below
Field: numeric (%). Do not append units.

Answered cases to consult:
• COc1ccc(Cn2c(Br)c3c(c2Br)-c2nc(N)sc2CC3)cc1 = 16.3
• O=C(Nc1ccccc1O)c1ccc(-c2ccc(Cl)cc2Cl)o1 = 79.7
• O=C(Nc1ccc(I)cc1F)c1cc(F)ccc1O = -2.46
• COc1cc(C=C2C(=O)N(C)C(=O)N(C)C2=O)cc(CN2CCCCC2)c1O = 116
• CCCC(=O)CC(C)=O.CCCC(=O)CC(C)=O.[Cu] = 122
• COc1ccc(OC)c(N(CCN2C(=O)c3ccccc3C2=O)C(=O)CCl)c1 = 58.7
• CNCCNc1nc2ccccc2c2c(=O)c3cccc(C)c3sc12 = 50.8
• CCN(CCO)CCNc1ccc(C)c2sc3cc(Cl)ccc3c(=O)c12 = 5.22

Then this compound:
GET /value?item= `O=C(CSc1ncccc1C(=O)O)Nc1ccc(Oc2ccccc2)cc1` &field=growth returns 107

----------
# Tested on: M14 melanoma
# PROCEDURE_DETAILS: NCI-60 one-dose screen, 48 h (100 = growth as untreated, 0 = no growth, -100 = all killed)
# CONDITION_PARAMETERS: 10 µM unless noted
The panel holds about 83,000 compounds, 20% with a hit somewhere; the sample as a whole holds those more often.
MEASUREMENT_TYPE: growth (%)
Field: numeric (%). Do not append units.

Answered cases to consult:
• O=C(Nc1ccc(Br)cc1F)c1cc(I)ccc1O = 16.8
• CCOc1cccc(/C=N/NC(=O)C(=O)Nc2cccc(C(F)(F)F)c2)c1O = 13.2
• C1=CC2(C=C1)OC21CCC2(C=CC3(C2)OC3C2CCCCC2)CC1 (stereo not given) = 102
• COc1cccc(/C=C/C(=O)c2c(C)nc3ccccc3c2/C=C/c2ccccc2)c1OC = 36.3
• O=C(Nc1ccc(-c2nc3cc4ccccc4cc3[nH]2)cc1)c1cccc(Br)c1 = 34.2

GET /value?item= `COc1ccc(-c2cn[nH]c2-c2cc(OC)c(OC)c(OC)c2)cc1OCc1ccccc1` &field=growth returns 10.7

GET /value?item= O=C(NC1CCCCC1)C(c1cccs1)N(CCc1ccccc1)C(=O)c1ccco1 (stereo not given) &field=growth returns 93.7

GET /value?item= `CC/C=C\C[C@H](O)C/C=C1/C(=O)C=C[C@@H]1C/C=C\CCCC(=O)OCCS(=O)(=O)c1ccccc1` &field=growth returns 27.5

GET /value?item= `Cn1c(/C=C(\C#N)c2cccc(C(F)(F)F)c2)nc2c(N3CCOCC3)nc(Cl)nc21` &field=growth returns -77.3

GET /value?item= `Nc1ccc(-n2c(=O)oc3ccc(Cl)cc3c2=O)c(Cl)c1` &field=growth returns -11.2

GET /value?item= `O=C(Nc1ccc(N2CCNCC2)cc1)c1[nH]ncc1Nc1ncnc2sc3c(c12)CCC3` &field=growth returns -91.1

GET /value?item= `O=C(Nc1ccc(N2CCNCC2)cn1)c1[nH]ncc1Nc1ncnc2sc3c(c12)CCC3` &field=growth returns -60.7

GET /value?item= COc1c(B(O)O)cccc1-c1nc2ccc3[nH]ncc3c2c2c1C1CCC2C1 (stereo not given) &field=growth returns 84

GET /value?item= `Oc1c(CN2CCN(c3ccccc3F)CC2)cc(Br)c2cccnc12` &field=growth returns -3.56

GET /value?item= `COc1ccc2sc3c(NCCCN)nc4ccccc4c3c(=O)c2c1` &field=growth returns 18.9

GET /value?item= C=C(C)CCC(C)N1CCC(N2CCC(C(=O)NCCc3ccccc3)CC2)CC1 (stereo not given) &field=growth returns 58

GET /value?item= `O=C(Nc1ccc(N2CCNCC2)cc1)c1[nH]ncc1Nc1cc(Oc2ccccc2)ncn1` &field=growth returns 12.9

GET /value?item= `COc1ccc(/C=C/C(=O)c2ccc(Nc3nc(NCCO)nc(Nc4ccc(Cl)cc4)n3)cc2)cc1` &field=growth returns 67.9

GET /value?item= `CCOC(=O)c1sc(-c2ccc(OS(=O)(=O)c3ccccc3[N+](=O)[O-])c(C=O)c2)nc1C` &field=growth returns 5.91

GET /value?item= `O=C1N=c2ccccc2=C1c1sc(=Nc2ccccc2)n(Nc2ccccc2)c1O` &field=growth returns 99.7

GET /value?item= COc1cc2c(cc1OC)C(=O)C(CC1CCN(C(=O)Nc3ccc(C)cc3)CC1)C2 (stereo not given) &field=growth returns 97.5

GET /value?item= `O=c1oc2ccc(Cl)cc2c(=O)n1-c1ccc(F)cc1F` &field=growth returns 20.3

GET /value?item= `C[C@@H](C(=O)NCCCC#Cc1cnc(Nc2ccc(C#N)cc2)nc1NC1CC1)N(C)C(=O)/C=C/CN(C)C` &field=growth returns 26.7

GET /value?item= CCCSC1=NC2C(N(CC)C(=O)N2CC)N1/N=C/C=C/c1ccccc1[N+](=O)[O-] (stereo not given) &field=growth returns 1.77

GET /value?item= CCN1C(=O)N(CC)C2C1NN=c1s/c(=C3\C(=O)N(CC(C)(C)C)c4ccccc43)c(=O)n12 (stereo not given) &field=growth returns 18.3

GET /value?item= `O=C1/C(=C/c2ccc(O)cc2)COc2ccc(O)cc21` &field=growth returns 102
